# TARGET: LRRK2 wild type enzyme (Homo sapiens, UniProt Q5S007)
# Sequence (Q5S007 whole entry): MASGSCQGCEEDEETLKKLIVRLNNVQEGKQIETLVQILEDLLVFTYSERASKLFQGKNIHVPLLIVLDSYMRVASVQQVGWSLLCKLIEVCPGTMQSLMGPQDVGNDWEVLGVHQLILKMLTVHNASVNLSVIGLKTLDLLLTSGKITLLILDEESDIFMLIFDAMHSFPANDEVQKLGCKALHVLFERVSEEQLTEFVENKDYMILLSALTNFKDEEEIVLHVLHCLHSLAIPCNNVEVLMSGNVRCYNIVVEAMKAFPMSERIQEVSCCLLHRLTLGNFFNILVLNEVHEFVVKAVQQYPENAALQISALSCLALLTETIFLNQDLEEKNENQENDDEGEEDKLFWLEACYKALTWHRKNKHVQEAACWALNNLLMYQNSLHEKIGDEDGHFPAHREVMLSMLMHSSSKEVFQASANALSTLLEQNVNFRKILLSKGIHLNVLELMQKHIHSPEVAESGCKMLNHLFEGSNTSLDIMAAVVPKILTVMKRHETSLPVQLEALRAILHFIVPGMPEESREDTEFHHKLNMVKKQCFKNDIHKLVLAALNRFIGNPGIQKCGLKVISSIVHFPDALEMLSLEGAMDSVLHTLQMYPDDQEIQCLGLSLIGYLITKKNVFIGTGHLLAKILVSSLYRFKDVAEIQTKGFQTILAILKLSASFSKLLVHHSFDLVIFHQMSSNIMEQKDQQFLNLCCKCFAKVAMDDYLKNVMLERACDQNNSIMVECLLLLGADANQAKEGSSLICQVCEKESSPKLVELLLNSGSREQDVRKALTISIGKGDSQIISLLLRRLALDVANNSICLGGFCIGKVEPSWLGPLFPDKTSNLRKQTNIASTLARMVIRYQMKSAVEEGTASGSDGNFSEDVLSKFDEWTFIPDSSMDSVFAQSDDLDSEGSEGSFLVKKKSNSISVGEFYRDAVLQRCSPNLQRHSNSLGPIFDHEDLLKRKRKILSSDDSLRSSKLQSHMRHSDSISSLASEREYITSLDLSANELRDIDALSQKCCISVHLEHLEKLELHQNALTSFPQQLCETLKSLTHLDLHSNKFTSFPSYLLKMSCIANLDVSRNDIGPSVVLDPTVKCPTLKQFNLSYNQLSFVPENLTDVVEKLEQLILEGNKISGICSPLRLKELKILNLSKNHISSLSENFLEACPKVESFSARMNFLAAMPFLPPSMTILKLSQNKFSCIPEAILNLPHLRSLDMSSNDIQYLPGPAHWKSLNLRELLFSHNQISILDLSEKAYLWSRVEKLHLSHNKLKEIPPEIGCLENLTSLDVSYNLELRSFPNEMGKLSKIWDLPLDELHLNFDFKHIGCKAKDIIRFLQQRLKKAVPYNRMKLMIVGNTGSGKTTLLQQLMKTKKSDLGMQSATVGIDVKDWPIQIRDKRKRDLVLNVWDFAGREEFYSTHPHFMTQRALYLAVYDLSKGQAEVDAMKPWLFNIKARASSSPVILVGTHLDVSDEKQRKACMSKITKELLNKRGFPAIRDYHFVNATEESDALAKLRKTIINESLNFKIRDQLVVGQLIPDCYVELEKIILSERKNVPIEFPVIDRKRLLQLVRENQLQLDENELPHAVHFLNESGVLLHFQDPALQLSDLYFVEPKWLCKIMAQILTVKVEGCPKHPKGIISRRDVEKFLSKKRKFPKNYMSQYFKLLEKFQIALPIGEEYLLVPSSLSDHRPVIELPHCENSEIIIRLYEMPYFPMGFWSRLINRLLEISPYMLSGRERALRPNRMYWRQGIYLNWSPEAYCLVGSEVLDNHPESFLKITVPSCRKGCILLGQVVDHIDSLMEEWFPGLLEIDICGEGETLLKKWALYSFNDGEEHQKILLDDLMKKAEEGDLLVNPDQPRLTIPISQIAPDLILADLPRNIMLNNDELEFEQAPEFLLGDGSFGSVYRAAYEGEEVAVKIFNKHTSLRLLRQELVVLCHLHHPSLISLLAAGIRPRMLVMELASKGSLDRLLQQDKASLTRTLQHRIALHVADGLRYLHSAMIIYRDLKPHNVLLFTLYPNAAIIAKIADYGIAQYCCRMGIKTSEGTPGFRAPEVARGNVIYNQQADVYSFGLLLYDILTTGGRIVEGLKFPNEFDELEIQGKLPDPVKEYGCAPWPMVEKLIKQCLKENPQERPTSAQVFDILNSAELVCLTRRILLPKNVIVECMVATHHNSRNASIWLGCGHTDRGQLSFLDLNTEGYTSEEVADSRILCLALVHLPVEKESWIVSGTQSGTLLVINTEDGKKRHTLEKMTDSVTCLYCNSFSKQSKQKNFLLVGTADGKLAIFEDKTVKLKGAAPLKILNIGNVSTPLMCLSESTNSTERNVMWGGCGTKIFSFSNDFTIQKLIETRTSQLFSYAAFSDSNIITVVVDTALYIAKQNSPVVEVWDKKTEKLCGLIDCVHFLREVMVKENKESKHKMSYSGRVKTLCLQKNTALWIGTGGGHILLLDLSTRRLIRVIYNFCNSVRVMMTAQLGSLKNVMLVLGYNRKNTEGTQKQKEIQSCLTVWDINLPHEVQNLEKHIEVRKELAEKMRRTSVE
# IC50 binned as lo (below 0.6 nM), med (0.6 nM to below 1 nM), hi (1 nM or more)

**Query** Consider Cc1ccc2ncc3nc(CC(=O)NC4CC4)n([C@@H]4CCO[C@H](C)C4)c3c2c1 . To which IC50 class does it belong?
**Result** med

**Query** Consider C[C@@H]1C[C@H](n2c(CC(=O)Nc3ccn(C)n3)nc3cnc4ccc(C#N)cc4c32)CCO1 . To which IC50 class does it belong?
**Result** lo

**Query** Consider C[C@@H]1C[C@H](n2c(CC(=O)NCc3ncccn3)nc3cnc4ccc(Cl)cc4c32)CCO1 . To which IC50 class does it belong?
**Result** lo

**Query** Consider C[C@@H]1C[C@H](n2c(CC(=O)Nc3ccn(C)c(=O)c3)nc3cnc4ccc(C#N)cc4c32)CCO1 . To which IC50 class does it belong?
**Result** lo

**Query** Consider C[C@@H]1C[C@H](n2c(CC(=O)Nc3cccnc3CO)nc3cnc4ccc(C#N)cc4c32)CCO1 . To which IC50 class does it belong?
**Result** lo

**Query** Consider Cc1nc(CNC(=O)Cc2nc3cnc4ccc(C#N)cc4c3n2[C@@H]2CCO[C@H](C)C2)no1 . To which IC50 class does it belong?
**Result** hi

**Query** Consider C[C@@H]1C[C@H](n2c(CC(=O)NC3CC3F)nc3cnc4ccc(C#N)cc4c32)CCO1 (stereo in doubt) . To which IC50 class does it belong?
**Result** med

**Query** Consider Cc1ncnc(C)c1NC(=O)Cc1nc2cnc3ccc(Cl)cc3c2n1[C@@H]1CCO[C@H](C)C1 . To which IC50 class does it belong?
**Result** lo

**Query** Consider Cc1ncccc1NC(=O)Cc1nc2cnc3ccc(C#N)cc3c2n1[C@@H]1CCO[C@H](C)C1 . To which IC50 class does it belong?
**Result** lo

**Query** Consider C[C@@H]1C[C@H](n2c(CC(=O)NC3CC3)nc3cnc4ccc(C(F)(F)F)cc4c32)CCO1 . To which IC50 class does it belong?
**Result** hi

**Query** Consider C[C@@H]1C[C@H](n2c(CC(=O)N[C@@H](C)C3CC3)nc3cnc4ccc(C#N)cc4c32)CCO1 . To which IC50 class does it belong?
**Result** hi

**Query** Consider C[C@@H]1C[C@H](n2c(CC(=O)NCCO)nc3cnc4ccc(Cl)cc4c32)CCO1 . To which IC50 class does it belong?
**Result** med

**Query** Consider C[C@@H]1C[C@H](n2c(C3CC(=O)N(C4COC4)C3)nc3cnc4ccc(C#N)cc4c32)CCO1 (some centres unmarked) . To which IC50 class does it belong?
**Result** hi

**Query** Consider C[C@@H]1C[C@H](n2c(CC(=O)Nc3cccnc3C(F)(F)F)nc3cnc4ccc(C#N)cc4c32)CCO1 . To which IC50 class does it belong?
**Result** med

**Query** Consider C[C@@H]1C[C@H](n2c(CC3CN(C(=O)OC(C)(C)C)C3)nc3cnc4ccc(C#N)cc4c32)CCO1 . To which IC50 class does it belong?
**Result** hi

**Query** Consider C[C@@H]1C[C@H](n2c(CC(=O)NC3CC3)nc3cnc4ccc(Cl)cc4c32)CCO1 . To which IC50 class does it belong?
**Result** lo

**Query** Consider Cn1cc(-n2c(C3CC(=O)N(CC4CC4)C3)nc3cnc4ccc(C#N)cc4c32)ccc1=O (centres unmarked) . To which IC50 class does it belong?
**Result** hi

**Query** Consider C[C@@H]1C[C@H](n2c(C3CCN(CC4CC4)C(=O)C3)nc3cnc4ccc(C#N)cc4c32)CCO1 (some centres unmarked) . To which IC50 class does it belong?
**Result** hi

**Query** Consider C[C@@H]1C[C@H](n2c([C@H]3CN(CC4CC4)S(=O)(=O)C3)nc3cnc4ccc(C#N)cc4c32)CCO1 . To which IC50 class does it belong?
**Result** med

**Query** Consider C[C@@H]1C[C@H](n2c(CC(=O)Nc3ncccn3)nc3cnc4ccc(C#N)cc4c32)CCO1 . To which IC50 class does it belong?
**Result** lo

**Query** Consider C[C@@H]1C[C@H](n2c(CC(=O)Nc3nccnc3Cl)nc3cnc4ccc(C#N)cc4c32)CCO1 . To which IC50 class does it belong?
**Result** hi

**Query** Consider C[C@@H]1C[C@H](n2c(CC(=O)Nc3ccc(OC(F)F)nc3)nc3cnc4ccc(C#N)cc4c32)CCO1 . To which IC50 class does it belong?
**Result** lo

**Query** Consider C[C@@H]1C[C@H](n2c(CC(=O)Nc3cn(C)c(C(F)(F)F)cc3=O)nc3cnc4ccc(C#N)cc4c32)CCO1 . To which IC50 class does it belong?
**Result** med

**Query** Consider C[C@@H]1C[C@H](n2c(C3CN(S(=O)(=O)C4CC4)C3)nc3cnc4ccc(C#N)cc4c32)CCO1 . To which IC50 class does it belong?
**Result** hi

**Query** Consider C[C@@H]1C[C@H](n2c([C@H]3CN(c4cnn(C)c4)C(=O)O3)nc3cnc4ccc(C#N)cc4c32)CCO1 . To which IC50 class does it belong?
**Result** med

**Query** Consider C[C@@H]1C[C@H](n2c(CN)nc3cnc4ccc(C#N)cc4c32)CCO1 . To which IC50 class does it belong?
**Result** hi

**Query** Consider COc1ncc(NC(=O)Cc2nc3cnc4ccc(C#N)cc4c3n2[C@@H]2CCO[C@H](C)C2)c(C)n1 . To which IC50 class does it belong?
**Result** lo

**Query** Consider C[C@@H]1C[C@H](n2c(CC(=O)NCC(C)(C)C#N)nc3cnc4ccc(C#N)cc4c32)CCO1 . To which IC50 class does it belong?
**Result** hi
